# Tested on: LOX IMVI
# assay-explanation: NCI tumour cell line growth inhibition, 48 h
Calls of active or inactive are those of the source. No stated cut-off is given here; in the data, active = GI50 up to about 1.1 µM and inactive = higher.
The following compounds are shown together with reported GI50 values.

[
  {
    "compound": "CNCCCNC1(c2cc3ccccc3s2)CCCCC1",
    "GI50": "2.79 µM (inactive)"
  },
  {
    "compound": "CC(C)(C)[Si](C)(C)OCC1OC(n2cnc3c(N)ncnc32)C(O[Si](C)(C)C(C)(C)C)C1O[Si](C)(C)C(C)(C)C (stereo unspecified)",
    "GI50": "6.43 µM (inactive)"
  },
  {
    "compound": "O=[Se](O)O",
    "GI50": "2.76 µM (inactive)"
  },
  {
    "compound": "N#CC(C(=O)CCCC(=O)Nc1ccc(Cl)cc1Cl)c1ccccc1 (stereo unspecified)",
    "GI50": "> 100 µM (inactive)"
  },
  {
    "compound": "COc1cc2c(/C=C3/C(=O)N(c4ccccc4)c4ccccc43)c(Cl)[nH]c2cc1C",
    "GI50": "2.94 µM (inactive)"
  },
  {
    "compound": "CN1CCN(/C(N)=C(\\C#N)C(=O)Nc2ccccc2)CC1",
    "GI50": "> 100 µM (inactive)"
  },
  {
    "compound": "COc1cc2c3c(c1)c1cc(OC)c(OC)cc1c[n+]3CC2",
    "GI50": "28.7 µM (inactive)"
  },
  {
    "compound": "C=CC[P@]1(=O)O[C@H](c2ccccc2)C(C)N1C(C)C (stereo partly specified)",
    "GI50": "> 100 µM (inactive)"
  },
  {
    "compound": "COC(=O)C1=CN(C2CCCCC2)C2(c3ccccc3)c3ccccc3C(=O)OC(=O)C12 (stereo unspecified)",
    "GI50": "42.3 µM (inactive)"
  },
  {
    "compound": "COc1cc2c(OC)c(c1)CCCC1=CC(=O)C=C(CCC2)C1=O",
    "GI50": "16.6 µM (inactive)"
  },
  {
    "compound": "CCOc1snc(C(Cl)(Cl)Cl)c1Cl",
    "GI50": "16.9 µM (inactive)"
  }
]

---

# Test system: CCRF-CEM
# assay-explanation: NCI tumour cell line growth inhibition, 48 h
Activity calls are given as the source filed them. Cut-off read from the data, not from the text of the source: active = GI50 up to about 1.1 µM and inactive = higher.
Outcomes: active, inactive

[
  {
    "compound": "CNC(=O)OCc1c(COC(=O)NC)c(-c2ccc(Cl)c(Cl)c2)n2c1SCC2",
    "category": "inactive"
  },
  {
    "compound": "CC(/C=C/C(=O)c1sc(C(N)=S)nc1C)=C\\c1ccccc1",
    "category": "inactive"
  },
  {
    "compound": "CCOC(=O)/C=C(/C(=O)OCC)n1ccc(=O)n(Cc2cn(CCCCOC(C)=O)nn2)c1=O",
    "category": "inactive"
  },
  {
    "compound": "COc1cc2c(cc1C)NC(=O)/C2=C/c1c(Cl)[nH]c2ccccc12",
    "category": "inactive"
  },
  {
    "compound": "c1ccc2c(c1)CCC/C2=N\\OCC1CO1 (stereo unspecified)",
    "category": "inactive"
  },
  {
    "compound": "C[C@@H](NC(=O)c1ccc(CNC(=O)/C=C/c2cccc(Oc3ccccc3)c2)cc1)c1ccccc1",
    "category": "inactive"
  },
  {
    "compound": "CNn1c(-c2ccc(C)cc2)n[nH]c1=O",
    "category": "inactive"
  },
  {
    "compound": "N#CCCN(CCC#N)c1ccc(/C=C2\\SC(=S)NC2=O)cc1Br",
    "category": "inactive"
  },
  {
    "compound": "CCOC(=O)NNC(=O)C1CSC(c2ccccc2)N1C(C)=O (stereo unspecified)",
    "category": "inactive"
  },
  {
    "compound": "CCc1cccc(C(C)C)c1NC(=O)C(=O)C1C(=O)NC(=O)NC1=O",
    "category": "inactive"
  },
  {
    "compound": "CCOC(OC1=C(C#N)CCC1)C(C)[Se]c1ccccc1 (stereo unspecified)",
    "category": "inactive"
  },
  {
    "compound": "CC(C)(C)c1ccc(-n2c3nc(=O)n(-c4ccccc4C(F)(F)F)c(=O)c-3cc3ccccc32)cc1",
    "category": "inactive"
  },
  {
    "compound": "CC(NNC(=O)c1ccc[n+]([BH2-]C#N)c1)c1ccccc1 (stereo unspecified)",
    "category": "inactive"
  },
  {
    "compound": "Clc1cc(-c2ccccc2)nc2ccccc12",
    "category": "inactive"
  },
  {
    "compound": "CO/C=C(/C(=O)OC)c1ccccc1COc1cccc(C(F)(F)F)c1",
    "category": "active"
  },
  {
    "compound": "Cn1c(=O)c2nc(CCCCc3nc4c(=O)n(C)c(=S)n(C)c4[nH]3)[nH]c2n(C)c1=S",
    "category": "inactive"
  },
  {
    "compound": "O=C(Nc1ccccc1[N+](=O)[O-])/C(=N/Nc1cccc(Cl)c1)c1c(O)c2ccccc2oc1=O",
    "category": "inactive"
  },
  {
    "compound": "O=c1[nH]c(=O)n(C2OC(CO)C(O)C2O)c2ncc(-c3ccc(-c4ccccc4)cc3)nc12 (stereo unspecified)",
    "category": "inactive"
  },
  {
    "compound": "Nc1nnc(-c2ccco2)c(-c2ccco2)n1",
    "category": "inactive"
  },
  {
    "compound": "Cc1cc(Cl)ccc1NC(=O)C(=O)Cc1ccc([N+](=O)[O-])c([N+](=O)[O-])c1CC(=O)C(=O)Nc1ccc(Cl)cc1C",
    "category": "inactive"
  },
  {
    "compound": "CCOC(=O)C(=O)CC1=Nc2ccccc2SC(c2cccc(C)c2)C1 (stereo unspecified)",
    "category": "inactive"
  }
]
